# ASSAY INFO: H9c2 cardiomyocyte survival under peroxide injury – uHTS, H9c2 cells, ATPLite luminescence, primary screen (AID 588492)
# REPORTED CONDITIONS: H9c2 cardiomyocytes, 2 h, at 20 µM
Among all 360,000 compounds or so, about 2,300 (0.64%) were called active.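 How the source made its calls: active means compounds giving at least 50% protection of heart cells from peroxide-induced death in the single-dose screen, raw or plate-pattern-corrected value; inactive means the rest.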 Many of the other results were omitted from the sample, so actives are more common in it than they were.
Possible outcomes: Y (active), N (inactive)

COMPOUND | CAT
NC(=O)Cn1cc(C(=O)c2ccccc2F)c2ccccc21 | N
Fc1ccc(C2N3CCCN23)cc1 (centres undefined) | N
CCN1CCN(C(=O)Cc2coc3cc(C)cc(C)c23)CC1 | N
CCN1CCN(c2nc3c(c(=O)[nH]2)CCC3)CC1 | Y
CCn1cc(CN2CCCC(C(=O)c3cccc(C(F)(F)F)c3)C2)cn1 (centres undefined) | N
CCCCCn1c(=O)c(C(=O)NCc2ccccn2)c(O)c2ccccc21 | Y
CCN1C(=O)C(=Cc2c(C)n(CC(=O)NCC3CCCO3)c3ccccc23)C(=O)N(CC)C1=S (centres undefined) | N
O=C(NC(c1ccc(Cl)cc1)P(=O)(Oc1ccccc1)Oc1ccccc1)OCc1ccccc1 (centres undefined) | N
COC(=O)C1=C(c2c(C)noc2C)C[C@@H]2CC[C@H]1N2C(=O)NCc1ccc2c(c1)OCO2 | N
